Hey, just so you know, these numbers are from paper PMC9440123.

Target: RPA (RPA70/RPA32/RPA14) (Saccharomyces cerevisiae, UniProt P22336;P26754;P26755 1-621;1-273;1-122)
Sequence (P22336 whole entry, chain 1 of 3): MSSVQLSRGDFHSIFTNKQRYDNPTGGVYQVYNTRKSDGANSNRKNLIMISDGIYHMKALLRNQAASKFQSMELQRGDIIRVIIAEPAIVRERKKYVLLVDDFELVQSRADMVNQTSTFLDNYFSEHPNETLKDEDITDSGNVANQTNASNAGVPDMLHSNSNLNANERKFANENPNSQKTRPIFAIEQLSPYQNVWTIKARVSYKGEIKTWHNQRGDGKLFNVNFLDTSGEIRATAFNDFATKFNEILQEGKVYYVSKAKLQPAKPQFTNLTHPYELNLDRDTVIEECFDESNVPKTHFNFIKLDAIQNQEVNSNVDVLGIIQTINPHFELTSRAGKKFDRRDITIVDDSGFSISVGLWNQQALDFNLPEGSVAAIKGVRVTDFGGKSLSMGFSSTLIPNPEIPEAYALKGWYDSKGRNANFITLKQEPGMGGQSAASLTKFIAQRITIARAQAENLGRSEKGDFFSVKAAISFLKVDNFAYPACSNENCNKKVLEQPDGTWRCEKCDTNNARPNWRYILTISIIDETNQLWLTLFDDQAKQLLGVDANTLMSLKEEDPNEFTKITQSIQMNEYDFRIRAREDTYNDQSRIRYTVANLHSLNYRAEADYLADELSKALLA
Sequence (P26754 whole entry, chain 2 of 3): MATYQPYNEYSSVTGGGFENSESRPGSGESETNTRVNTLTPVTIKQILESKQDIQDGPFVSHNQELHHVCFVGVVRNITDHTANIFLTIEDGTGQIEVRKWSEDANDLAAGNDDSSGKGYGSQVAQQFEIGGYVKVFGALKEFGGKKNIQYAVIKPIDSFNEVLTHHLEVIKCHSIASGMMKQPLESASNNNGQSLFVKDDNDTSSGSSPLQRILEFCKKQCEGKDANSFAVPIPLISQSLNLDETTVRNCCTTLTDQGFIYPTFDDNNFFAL
Sequence (P26755 whole entry, chain 3 of 3): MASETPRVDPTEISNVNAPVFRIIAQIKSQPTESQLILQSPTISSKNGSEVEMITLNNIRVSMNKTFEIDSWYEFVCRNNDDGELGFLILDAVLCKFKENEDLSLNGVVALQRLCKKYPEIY
Assay: fluorescence anisotropy; no Rtt105; 5 mM MgCl2; stoichiometric, apparent Kd; EMSA: 25 mM Tris-Cl pH 7.5, 200 mM NaCl, 5 mM MgCl2, 5% glycerol, 0.05% Tween-20, 25 C; anisotropy/FRET: 30 mM HEPES pH 7.8, 100 mM KCl, 6% glycerol, 5 mM MgCl2, 1 mM bME, 23 C (stopped flow 25 C)
Details: protein: recombinant; copies: 1;1;1
recordedEndpoint: pKd
FYI, pKd means -log10 of a concentration in mol per litre.

query: Reported pKd, binder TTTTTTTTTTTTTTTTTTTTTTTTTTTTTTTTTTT (ssDNA) [FAM-(dT)35] : ____
result: 8.40
